tgt: Sodium-dependent dopamine transporter (Rattus norvegicus)
Sequence (P23977 whole entry): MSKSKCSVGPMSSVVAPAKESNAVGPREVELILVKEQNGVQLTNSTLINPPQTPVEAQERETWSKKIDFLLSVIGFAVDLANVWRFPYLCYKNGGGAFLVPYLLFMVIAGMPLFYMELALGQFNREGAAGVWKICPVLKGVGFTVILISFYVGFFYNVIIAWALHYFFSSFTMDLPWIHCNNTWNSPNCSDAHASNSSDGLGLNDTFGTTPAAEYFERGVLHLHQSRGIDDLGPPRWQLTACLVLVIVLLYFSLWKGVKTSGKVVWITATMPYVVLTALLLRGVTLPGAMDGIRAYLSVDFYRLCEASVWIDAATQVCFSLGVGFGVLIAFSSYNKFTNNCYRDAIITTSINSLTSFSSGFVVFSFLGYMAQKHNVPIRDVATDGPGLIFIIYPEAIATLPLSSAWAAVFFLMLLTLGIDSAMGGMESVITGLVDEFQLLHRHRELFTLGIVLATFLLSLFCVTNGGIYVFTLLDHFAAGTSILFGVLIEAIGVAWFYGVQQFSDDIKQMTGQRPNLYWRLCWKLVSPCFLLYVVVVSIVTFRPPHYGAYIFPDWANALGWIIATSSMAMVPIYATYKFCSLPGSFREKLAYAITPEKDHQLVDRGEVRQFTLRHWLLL
method.notes: Concentration required to inhibit 50% of radioligand binding ([3H]WIN-35428) to the dopamine (DA) transporter in rat
Provide the reported IC50 of each item.
Report only the number, with the unit nM understood.

Item COC(=O)C1C2CC[C@H](C[C@@H]1c1ccc(N)c(I)c1)N2C (some centres not stated) has what recorded IC50?
1.35

Given the molecule COC(=O)[C@@H]1C2CC[C@H](C[C@@H]1c1ccc(N)cc1)N2C , what is its reported IC50?
9.84

Look up IC50: COC(=O)C1C2CC[C@H](C[C@@H]1c1ccc(F)c(C)c1)N2C (stereo in doubt; 2x)
2.95

Can you look up the measured IC50 of CCC(=O)Nc1ccc([C@H]2C[C@H]3CCC([C@H]2C(=O)OC)N3C)cc1 for me?
121

Which IC50 is listed for COC(=O)C1C2CC[C@@H](C[C@@H]1c1ccc([N+](=O)[O-])cc1)N2C (some centres not stated) ?
13.1

IC50 for COC(=O)C1C2CC[C@H](C[C@@H]1c1cccc(I)c1)N2C (some centres not stated) ?
26.1

So what does the record say about IC50 for COC(=O)C1C2CC[C@H](C[C@@H]1c1ccc(O)cc1)N2C (some centres not stated) ?
12.1

// IC50 lookup, key: COC(=O)C1C2CC[C@H](C[C@@H]1c1ccc(N)c(Br)c1)N2C (some centres not stated)
3.91

What does the record list as IC50 for COC(=O)C1C2CC[C@H](C[C@H]1c1ccc(Cl)c(Cl)c1)N2C (some centres not stated) ?
0.79

Value lookup for IC50; key = COC(=O)C1C2CC[C@H](C[C@@H]1c1cccc(Cl)c1)N2C (some centres not stated)
6.27

Can you share its IC50? I mean this molecule: COC(=O)C1C2CC[C@H](C[C@H]1c1ccc(Br)cc1)N2C (some centres not stated)
1.69

For the molecule shown here, COC(=O)C1C2CC[C@H](C[C@@H]1c1cccc(F)c1)N2C (some centres not stated) , give the reported IC50.
16.4
